# pKi values compiled below
- experimental.system: KOP (Homo sapiens)
- Sequence (P41145 whole entry): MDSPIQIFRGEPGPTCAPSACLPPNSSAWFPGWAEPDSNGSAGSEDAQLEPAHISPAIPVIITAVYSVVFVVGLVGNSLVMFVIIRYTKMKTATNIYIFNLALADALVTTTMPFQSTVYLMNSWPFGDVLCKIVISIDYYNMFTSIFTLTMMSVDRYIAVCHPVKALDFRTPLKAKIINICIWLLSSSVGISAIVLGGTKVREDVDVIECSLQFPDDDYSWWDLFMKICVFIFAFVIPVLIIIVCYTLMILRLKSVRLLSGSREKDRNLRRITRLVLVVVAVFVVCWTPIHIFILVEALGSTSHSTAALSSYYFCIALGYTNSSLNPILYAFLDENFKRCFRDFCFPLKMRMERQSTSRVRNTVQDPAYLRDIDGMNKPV
- experimental.details: biochemical
pKi: −log10 of the molar value.
outcome.measure: pKi

[[record]]
compound = "O=C(N[C@@H]1C=CC2C3Cc4ccc(O)c5c4[C@@]2(CCN3CC2CC2)C1O5)c1ccccc1 (stereo partly shown)"
observed = 9.38

[[record]]
compound = "O=C(N[C@@H]1C=CC2C3Cc4ccc(O)c5c4[C@@]2(CCN3CC2CC2)C1O5)c1cccc(Cl)c1 (stereo partly shown)"
observed = 9.89

[[record]]
compound = "O=C(N[C@@H]1C=CC2C3Cc4ccc(O)c5c4[C@@]2(CCN3CC2CC2)C1O5)c1cccc(F)c1 (stereo partly shown)"
observed = 9.80

[[record]]
compound = "O=C(N[C@@H]1C=CC2C3Cc4ccc(O)c5c4[C@@]2(CCN3CC2CC2)C1O5)c1ccccc1I (stereo partly shown)"
observed = 9.57


----------
- experimental.system: KOP (Homo sapiens)
- experimental.details: biochemical
# Ki values compiled below
outcome.measure: Ki (nM)

[[record]]
compound = "O=C(N[C@@H]1C=CC2C3Cc4ccc(O)c5c4[C@@]2(CCN3CC2CC2)C1O5)c1cccc(Br)c1 (stereo partly shown)"
experimental_system = "KOP (Homo sapiens)"
observed = 0.12

[[record]]
compound = "O=C(N[C@@H]1C=CC2C3Cc4ccc(O)c5c4[C@@]2(CCN3CC2CC2)C1O5)c1ccc(I)cc1 (stereo partly shown)"
experimental_system = "KOP (Homo sapiens)"
observed = 0.12

[[record]]
compound = "Cc1cccc(C(=O)N[C@@H]2C=CC3C4Cc5ccc(O)c6c5[C@@]3(CCN4CC3CC3)C2O6)c1 (stereo partly shown)"
experimental_system = "KOP (Homo sapiens)"
observed = 0.18

[[record]]
compound = "O=C(N[C@@H]1C=CC2C3Cc4ccc(O)c5c4[C@@]2(CCN3CC2CC2)C1O5)c1cccc(C(F)(F)F)c1 (stereo partly shown)"
experimental_system = "KOP (Homo sapiens)"
observed = 0.14


----------
- experimental.system: UniProtKB P41145
pKi: −log10 of the molar value.
outcome.measure: pKi

[[record]]
structure_notation = "CN(C(=O)/C=C/c1ccoc1)[C@@H]1CC[C@@]2(O)[C@H]3Cc4cccc5c4[C@@]2(CCN3CC2CC2)[C@H]1O5"
experimental_system = "UniProtKB P41145"
observed = 8.82


----------
- experimental.system: MOP (Homo sapiens)
- Sequence (P35372 whole entry): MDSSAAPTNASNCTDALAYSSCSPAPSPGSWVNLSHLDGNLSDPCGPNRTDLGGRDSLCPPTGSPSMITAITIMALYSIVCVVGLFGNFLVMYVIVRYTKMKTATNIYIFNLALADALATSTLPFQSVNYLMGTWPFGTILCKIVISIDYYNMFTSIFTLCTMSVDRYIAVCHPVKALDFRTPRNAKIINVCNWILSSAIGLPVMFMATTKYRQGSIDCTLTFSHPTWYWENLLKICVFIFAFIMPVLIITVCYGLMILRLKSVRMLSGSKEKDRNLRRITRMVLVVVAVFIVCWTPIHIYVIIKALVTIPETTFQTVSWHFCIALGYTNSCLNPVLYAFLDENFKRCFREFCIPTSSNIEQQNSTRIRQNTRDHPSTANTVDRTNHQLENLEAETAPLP
- experimental.details: biochemical
pKi: −log10 of the molar value.
# pKi values compiled below
outcome.measure: pKi

[[record]]
compound = "O=C(N[C@@H]1C=CC2C3Cc4ccc(O)c5c4[C@@]2(CCN3CC2CC2)C1O5)c1ccc(I)cc1 (stereo partly drawn) [MP1112]"
outcome_measure = "pKi"
observed = 9.77

[[record]]
compound = "O=C(N[C@@H]1C=CC2C3Cc4ccc(O)c5c4[C@@]2(CCN3CC2CC2)C1O5)c1cccc(Cl)c1 (stereo partly drawn) [MP1109]"
outcome_measure = "pKi"
observed = 9.80

[[record]]
compound = "O=C(N[C@@H]1C=CC2C3Cc4ccc(O)c5c4[C@@]2(CCN3CC2CC2)C1O5)c1cccc(C(F)(F)F)c1 (stereo partly drawn) [MP1113]"
outcome_measure = "pKi"
observed = 9.62

[[record]]
compound = "CN(C(=O)/C=C/c1ccoc1)[C@@H]1CC[C@@]2(O)[C@H]3Cc4ccc(O)c5c4[C@@]2(CCN3CC2CC2)[C@H]1O5 [Nalfurafine, reference compound]"
outcome_measure = "pKi"
observed = 8.38

[[record]]
compound = "O=C(N[C@@H]1C=CC2C3Cc4ccc(O)c5c4[C@@]2(CCN3CC2CC2)C1O5)c1ccccc1I (stereo partly drawn) [MP1111]"
outcome_measure = "pKi"
observed = 9.70

[[record]]
compound = "O=C(N[C@@H]1C=CC2C3Cc4ccc(O)c5c4[C@@]2(CCN3CC2CC2)C1O5)c1cccc(F)c1 (stereo partly drawn) [MP1114]"
outcome_measure = "pKi"
observed = 9.57

[[record]]
compound = "Cc1cccc(C(=O)N[C@@H]2C=CC3C4Cc5ccc(O)c6c5[C@@]3(CCN4CC3CC3)C2O6)c1 (stereo partly drawn) [MP1115]"
outcome_measure = "pKi"
observed = 9.60

[[record]]
compound = "O=C(N[C@@H]1C=CC2C3Cc4ccc(O)c5c4[C@@]2(CCN3CC2CC2)C1O5)c1cccc(Br)c1 (stereo partly drawn) [MP1110]"
outcome_measure = "pKi"
observed = 9.74

[[record]]
compound = "O=C(N[C@@H]1C=CC2C3Cc4ccc(O)c5c4[C@@]2(CCN3CC2CC2)C1O5)c1ccccc1 (stereo partly drawn) [MP1108]"
outcome_measure = "pKi"
observed = 9.38

